Tested on: caspase-3 in MDA-MB-231 breast cancer cells
Experiment: FLICA caspase-3 activity, flow cytometry, MDA-MB-231
Format: cell-based, human
Settings: MDA-MB-231, 20 μM, 24 h
Test readout: percent of cells with active caspase-3 (%)

Smiles text	Test readout	Result number
Cc1ccn[nH]1.Cc1ccn[nH]1.Cc1ccn[nH]1.Cc1ccn[nH]1.Cl.Cl.Cl.Cl.N=C(N)c1ccc(N=N[N]([Pt])c2ccc(C(=N)N)cc2)cc1.N=C(N)c1ccc(N=N[N]([Pt])c2ccc(C(=N)N)cc2)cc1.O.O	percent of cells with active caspase-3	21.0
Cc1cc(C)[n+]([Pt-2]2([n+]3c(C)cc(C)n3CO)[N](c3ccc(C(=N)N)cc3)N=[N+](c3ccc(C(=N)N)cc3)[Pt-2]([n+]3c(C)cc(C)n3CO)([n+]3c(C)cc(C)n3CO)[N](c3ccc(C(=N)N)cc3)N=[N+]2c2ccc(C(=N)N)cc2)n1CO.Cl.Cl.Cl.Cl.O.O	percent of cells with active caspase-3	30.6

* * *

System: fibroblast cells
Test: MTT cell viability assay, fibroblasts
Format: cell-based, human
Details: 24 h incubation, 5-50 μM, read-out: IC50 (cell viability, MTT)
pIC50: −log10 of the molar value.
Test readout: pIC50

Compound	Relation sign	Result number
Cc1cc(C)[n+]([Pt-2]2([n+]3c(C)cc(C)n3CO)[N](c3ccc(C(=N)N)cc3)N=[N+](c3ccc(C(=N)N)cc3)[Pt-2]([n+]3c(C)cc(C)n3CO)([n+]3c(C)cc(C)n3CO)[N](c3ccc(C(=N)N)cc3)N=[N+]2c2ccc(C(=N)N)cc2)n1CO.Cl.Cl.Cl.Cl.O.O [PtPz1]	=	4.62
CCn1ccc[n+]1[Pt-2]1([n+]2cccn2CC)[N](c2ccc(C(=N)N)cc2)N=[N+](c2ccc(C(=N)N)cc2)[Pt-2]([n+]2cccn2CC)([n+]2cccn2CC)[N](c2ccc(C(=N)N)cc2)N=[N+]1c1ccc(C(=N)N)cc1.Cl.Cl.Cl.Cl.O.O [PtPz6]	<	4.30
Cc1c[nH][n+]([Pt-2]2([n+]3[nH]cc(C)c3C)[N](c3ccc(C(=N)N)cc3)N=[N+](c3ccc(C(=N)N)cc3)[Pt-2]([n+]3[nH]cc(C)c3C)([n+]3[nH]cc(C)c3C)[N](c3ccc(C(=N)N)cc3)N=[N+]2c2ccc(C(=N)N)cc2)c1C.Cl.Cl.Cl.Cl.O.O [PtPz3]	=	4.49
Cc1ccn[nH]1.Cc1ccn[nH]1.Cc1ccn[nH]1.Cc1ccn[nH]1.Cl.Cl.Cl.Cl.N=C(N)c1ccc(N=N[N]([Pt])c2ccc(C(=N)N)cc2)cc1.N=C(N)c1ccc(N=N[N]([Pt])c2ccc(C(=N)N)cc2)cc1.O.O [PtPz5]	=	4.46
Cc1cc(C)[n+]([Pt-2]2([n+]3[nH]c(C)cc3C)[N](c3ccc(C(=N)N)cc3)N=[N+](c3ccc(C(=N)N)cc3)[Pt-2]([n+]3[nH]c(C)cc3C)([n+]3[nH]c(C)cc3C)[N](c3ccc(C(=N)N)cc3)N=[N+]2c2ccc(C(=N)N)cc2)[nH]1.Cl.Cl.Cl.Cl.O.O [PtPz2]	=	4.57

* * *

System: caspase-9 in MCF-7 breast cancer cells
Experiment: FLICA caspase-9 activity, flow cytometry, MCF-7
Format: cell-based, human
Conditions: MCF-7, 20 μM, 24 h
Note to self: use condition met only for percent of cells with active caspase-9 readings below 40%; a reading exactly at 40% still gets condition not met.

Compound	Group
CCn1ccc[n+]1[Pt-2]1([n+]2cccn2CC)[N](c2ccc(C(=N)N)cc2)N=[N+](c2ccc(C(=N)N)cc2)[Pt-2]([n+]2cccn2CC)([n+]2cccn2CC)[N](c2ccc(C(=N)N)cc2)N=[N+]1c1ccc(C(=N)N)cc1.Cl.Cl.Cl.Cl.O.O	condition met
Cc1cc(C)[n+]([Pt-2]2([n+]3[nH]c(C)cc3C)[N](c3ccc(C(=N)N)cc3)N=[N+](c3ccc(C(=N)N)cc3)[Pt-2]([n+]3[nH]c(C)cc3C)([n+]3[nH]c(C)cc3C)[N](c3ccc(C(=N)N)cc3)N=[N+]2c2ccc(C(=N)N)cc2)[nH]1.Cl.Cl.Cl.Cl.O.O	condition not met
N.N.[Cl][Pt][Cl] [cisplatin, reference compound]	condition met
Cc1c[nH][n+]([Pt-2]2([n+]3[nH]cc(C)c3C)[N](c3ccc(C(=N)N)cc3)N=[N+](c3ccc(C(=N)N)cc3)[Pt-2]([n+]3[nH]cc(C)c3C)([n+]3[nH]cc(C)c3C)[N](c3ccc(C(=N)N)cc3)N=[N+]2c2ccc(C(=N)N)cc2)c1C.Cl.Cl.Cl.Cl.O.O	condition not met
Cc1cc(C)[n+]([Pt-2]2([n+]3c(C)cc(C)n3CO)[N](c3ccc(C(=N)N)cc3)N=[N+](c3ccc(C(=N)N)cc3)[Pt-2]([n+]3c(C)cc(C)n3CO)([n+]3c(C)cc(C)n3CO)[N](c3ccc(C(=N)N)cc3)N=[N+]2c2ccc(C(=N)N)cc2)n1CO.Cl.Cl.Cl.Cl.O.O	condition not met

* * *

System: caspase-3 in MDA-MB-231 breast cancer cells
Assay: FLICA caspase-3 activity, flow cytometry, MDA-MB-231
Type: cell-based, human
Details: MDA-MB-231, 20 μM, 24 h
Test readout: percent of cells with active caspase-3 (%)

Compound	Result number
Cc1c[nH][n+]([Pt-2]2([n+]3[nH]cc(C)c3C)[N](c3ccc(C(=N)N)cc3)N=[N+](c3ccc(C(=N)N)cc3)[Pt-2]([n+]3[nH]cc(C)c3C)([n+]3[nH]cc(C)c3C)[N](c3ccc(C(=N)N)cc3)N=[N+]2c2ccc(C(=N)N)cc2)c1C.Cl.Cl.Cl.Cl.O.O	22.9
Cc1cc(C)[n+]([Pt-2]2([n+]3[nH]c(C)cc3C)[N](c3ccc(C(=N)N)cc3)N=[N+](c3ccc(C(=N)N)cc3)[Pt-2]([n+]3[nH]c(C)cc3C)([n+]3[nH]c(C)cc3C)[N](c3ccc(C(=N)N)cc3)N=[N+]2c2ccc(C(=N)N)cc2)[nH]1.Cl.Cl.Cl.Cl.O.O	28.9
N.N.[Cl][Pt][Cl] [cisplatin, reference compound]	6.4
CCn1ccc[n+]1[Pt-2]1([n+]2cccn2CC)[N](c2ccc(C(=N)N)cc2)N=[N+](c2ccc(C(=N)N)cc2)[Pt-2]([n+]2cccn2CC)([n+]2cccn2CC)[N](c2ccc(C(=N)N)cc2)N=[N+]1c1ccc(C(=N)N)cc1.Cl.Cl.Cl.Cl.O.O	11.0

* * *

Tested on: fibroblast cells
Experiment: MTT cell viability assay, fibroblasts
Assay type: cell-based, human
Conditions: 48 h incubation, 5-50 μM, read-out: IC50 (cell viability, MTT)
pIC50: −log10 of the molar value.
Test readout: pIC50

Molecule	Relation sign	Result number
Cc1cc(C)[n+]([Pt-2]2([n+]3c(C)cc(C)n3CO)[N](c3ccc(C(=N)N)cc3)N=[N+](c3ccc(C(=N)N)cc3)[Pt-2]([n+]3c(C)cc(C)n3CO)([n+]3c(C)cc(C)n3CO)[N](c3ccc(C(=N)N)cc3)N=[N+]2c2ccc(C(=N)N)cc2)n1CO.Cl.Cl.Cl.Cl.O.O	=	4.72
Cc1cc(C)[n+]([Pt-2]2([n+]3[nH]c(C)cc3C)[N](c3ccc(C(=N)N)cc3)N=[N+](c3ccc(C(=N)N)cc3)[Pt-2]([n+]3[nH]c(C)cc3C)([n+]3[nH]c(C)cc3C)[N](c3ccc(C(=N)N)cc3)N=[N+]2c2ccc(C(=N)N)cc2)[nH]1.Cl.Cl.Cl.Cl.O.O	=	4.62
Cc1c[nH][n+]([Pt-2]2([n+]3[nH]cc(C)c3C)[N](c3ccc(C(=N)N)cc3)N=[N+](c3ccc(C(=N)N)cc3)[Pt-2]([n+]3[nH]cc(C)c3C)([n+]3[nH]cc(C)c3C)[N](c3ccc(C(=N)N)cc3)N=[N+]2c2ccc(C(=N)N)cc2)c1C.Cl.Cl.Cl.Cl.O.O	=	4.55
N.N.[Cl][Pt][Cl] [cisplatin, reference compound]	<	4.30

* * *

Test system: fibroblast cells
Test: MTT cell viability assay, fibroblasts
Type: cell-based, human
Conditions: read-out: IC50 (additional test for cisplatin), 48 h, additional test in concentrations allowing to determine IC50
Protocol: MCF-7, MDA-MB-231 (both human breast cancer cell lines), and fibroblast cells were obtained from American Type Culture Collection (ATCC, Manassas, VA, USA). DMEM and FBS used in a cell culture were from Gibco (USA). […] The viability of cultured cells was decided through assaying the reduction of MTT to formazan. […] At 570 nm (630 nm as a reference), the absorbance was measured in an Evolution 201 reader (Thermo Scientific, Waltham, MA).
pIC50: −log10 of the molar value.
Test readout: pIC50

Compound	Test readout	Result
N.N.[Cl][Pt][Cl] [cisplatin, reference compound]	pIC50	< 4.00

* * *

Test system: MDA-MB-231 breast cancer cells
Assay: DNA fragmentation TUNEL assay, MDA-MB-231
Format: cell-based, human
Details: MDA-MB-231, 20 μM, 24 h
Under this convention, Satisfied denotes percent of TUNEL positive cells strictly below 50% and Not satisfied denotes percent of TUNEL positive cells at or above 50%.

Molecule	Group
Cc1ccn[nH]1.Cc1ccn[nH]1.Cc1ccn[nH]1.Cc1ccn[nH]1.Cl.Cl.Cl.Cl.N=C(N)c1ccc(N=N[N]([Pt])c2ccc(C(=N)N)cc2)cc1.N=C(N)c1ccc(N=N[N]([Pt])c2ccc(C(=N)N)cc2)cc1.O.O	Satisfied
N.N.[Cl][Pt][Cl] [cisplatin, reference compound]	Satisfied
CCn1ccc[n+]1[Pt-2]1([n+]2cccn2CC)[N](c2ccc(C(=N)N)cc2)N=[N+](c2ccc(C(=N)N)cc2)[Pt-2]([n+]2cccn2CC)([n+]2cccn2CC)[N](c2ccc(C(=N)N)cc2)N=[N+]1c1ccc(C(=N)N)cc1.Cl.Cl.Cl.Cl.O.O	Satisfied
Cc1cc(C)[n+]([Pt-2]2([n+]3c(C)cc(C)n3CO)[N](c3ccc(C(=N)N)cc3)N=[N+](c3ccc(C(=N)N)cc3)[Pt-2]([n+]3c(C)cc(C)n3CO)([n+]3c(C)cc(C)n3CO)[N](c3ccc(C(=N)N)cc3)N=[N+]2c2ccc(C(=N)N)cc2)n1CO.Cl.Cl.Cl.Cl.O.O	Not satisfied
Cc1cc(C)[n+]([Pt-2]2([n+]3[nH]c(C)cc3C)[N](c3ccc(C(=N)N)cc3)N=[N+](c3ccc(C(=N)N)cc3)[Pt-2]([n+]3[nH]c(C)cc3C)([n+]3[nH]c(C)cc3C)[N](c3ccc(C(=N)N)cc3)N=[N+]2c2ccc(C(=N)N)cc2)[nH]1.Cl.Cl.Cl.Cl.O.O	Not satisfied

These entries and their values trace back to paper PMC6009892.
